# System: Escherichia coli
# Experiment Notes: Antibacterial activity against Escherichia coli DC2 by broth microdilution method
# Type: functional
Entries annotated with measured MIC
Write the answer as a number in µg/mL, unit excluded.

In [3]: df
Out[3]:
                            chemical_string  value
0  CO[C@@H]1[C@@H](OC(=O)c2ccc(C)[nH]2)[C@@H](O)[C@H](Oc2ccc3c(O)c(NC(=O)/C=C/c4ccccc4)c(=O)oc3c2Cl)OC1(C)C     32

*Q* What does the record list as MIC for CO[C@@H]1[C@@H](OC(=O)c2ccc(C)[nH]2)[C@@H](O)[C@H](Oc2ccc3c(O)c(NC(=O)c4ccc(O)c(CC=C(C)C)c4)c(=O)oc3c2Cl)OC1(C)C ?
*A* 2

*Q* Then what about the compound COc1cc(C(=O)Nc2c(O)c3ccc(O[C@@H]4OC(C)(C)[C@H](OC)[C@@H](OC(=O)c5ccc(C)[nH]5)[C@H]4O)c(Cl)c3oc2=O)ccc1O ?
*A* 32

*Q* What do you get for COc1cc(/C=C/C(=O)Nc2c(O)c3ccc(O[C@@H]4OC(C)(C)[C@H](OC)[C@@H](OC(=O)c5ccc(C)[nH]5)[C@H]4O)c(Cl)c3oc2=O)ccc1O ?
*A* 16

*Q* Also need CO[C@@H]1[C@@H](OC(=O)c2ccc(C)[nH]2)[C@@H](O)[C@H](Oc2ccc3c(O)c(NC(=O)c4cc(C)c(O)c(C)c4)c(=O)oc3c2Cl)OC1(C)C , thanks.
*A* 16

Reference for the values: ChEMBL document CHEMBL1275417
